Data credit: the Immune Epitope Database (IEDB)

Target: HLA-A*02:03
Test: IEDB peptide-MHC binding, purified MHC/competitive/radioactivity; filed as Kd, often an IC50 or EC50 that approximates it; bounds were set here for any values at or beyond the usual limits of such assays
Settings: source organism: Vaccinia virus WR
Lab note: anything with Kd below 20 nM is marked label 1; values at 20 nM or higher are marked label 0.

QUERY_SEQUENCE: RIKSVLDII
TARGET_ENTITY: HLA-A*02:03
CATEGORY_LABEL: label 1

QUERY_SEQUENCE: ITPNNLNKI
TARGET_ENTITY: HLA-A*02:03
CATEGORY_LABEL: label 0

QUERY_SEQUENCE: SARALKAYFT
TARGET_ENTITY: HLA-A*02:03
CATEGORY_LABEL: label 0

QUERY_SEQUENCE: DTDIVNNFIT
TARGET_ENTITY: HLA-A*02:03
CATEGORY_LABEL: label 0

QUERY_SEQUENCE: VVIVENDNVI
TARGET_ENTITY: HLA-A*02:03
CATEGORY_LABEL: label 0

QUERY_SEQUENCE: HTKFWISDNT
TARGET_ENTITY: HLA-A*02:03
CATEGORY_LABEL: label 0

QUERY_SEQUENCE: SAEDNYLAKL
TARGET_ENTITY: HLA-A*02:03
CATEGORY_LABEL: label 0

QUERY_SEQUENCE: TIAVSVYGA
TARGET_ENTITY: HLA-A*02:03
CATEGORY_LABEL: label 1

QUERY_SEQUENCE: FVKKMLPKII
TARGET_ENTITY: HLA-A*02:03
CATEGORY_LABEL: label 0

QUERY_SEQUENCE: NIEIMDKEQL
TARGET_ENTITY: HLA-A*02:03
CATEGORY_LABEL: label 0

QUERY_SEQUENCE: VLTSVDIETA
TARGET_ENTITY: HLA-A*02:03
CATEGORY_LABEL: label 0

QUERY_SEQUENCE: QVKDNIISRT
TARGET_ENTITY: HLA-A*02:03
CATEGORY_LABEL: label 0

QUERY_SEQUENCE: TFFSYLMKDK
TARGET_ENTITY: HLA-A*02:03
CATEGORY_LABEL: label 0

QUERY_SEQUENCE: NLYISDYKM
TARGET_ENTITY: HLA-A*02:03
CATEGORY_LABEL: label 0

QUERY_SEQUENCE: SVDVDIYDA
TARGET_ENTITY: HLA-A*02:03
CATEGORY_LABEL: label 0

QUERY_SEQUENCE: YLLFNHFSV
TARGET_ENTITY: HLA-A*02:03
CATEGORY_LABEL: label 1

QUERY_SEQUENCE: TLPELNLSL
TARGET_ENTITY: HLA-A*02:03
CATEGORY_LABEL: label 0

QUERY_SEQUENCE: PTLFGRGVI
TARGET_ENTITY: HLA-A*02:03
CATEGORY_LABEL: label 0

QUERY_SEQUENCE: VMYAFTTPLI
TARGET_ENTITY: HLA-A*02:03
CATEGORY_LABEL: label 1

QUERY_SEQUENCE: LQISRVNDL
TARGET_ENTITY: HLA-A*02:03
CATEGORY_LABEL: label 1

QUERY_SEQUENCE: FTSDYPFYV
TARGET_ENTITY: HLA-A*02:03
CATEGORY_LABEL: label 1
